tested on: 997726-040-R-J2-PDC tumor spheroids, viability; assay: Anticancer human tumor 997726-040-R-J2-PDC patient-derived squamous cell lung carcinoma cell line growth inhibition [PI3K]; conditions: second compound 0.0316 µM; first compound 0.0316 µM; stronger effect = lower value; spheroids with HUVEC and MSC
metric: viability, T/C (%)

[[record]]
compound = "CNC(=O)c1ccc(N2C(=S)N(c3ccc(C#N)c(C(F)(F)F)c3)C(=O)C2(C)C)cc1F + Cc1nc(NC(=O)N2CCCC2C(N)=O)sc1-c1ccnc(C(C)(C)C(F)(F)F)c1"
target_or_system = "997726-040-R-J2-PDC tumor spheroids, viability"
metric = "viability, T/C"
units_of_measure = "%"
measured_result = 74.4

[[record]]
compound = "CC(C)NCC(C(=O)N1CCN(c2ncnc3c2C(C)CC3O)CC1)c1ccc(Cl)cc1 (stereo not given) + CC(Nc1ncnc2nc[nH]c12)c1cc2cccc(Cl)c2c(=O)n1-c1ccccc1"
target_or_system = "997726-040-R-J2-PDC tumor spheroids, viability"
metric = "viability, T/C"
units_of_measure = "%"
measured_result = 82.7

[[record]]
compound = "CC1(C)CCC(CN2CCN(c3ccc(C(=O)NS(=O)(=O)c4ccc(NCC5CCOCC5)c([N+](=O)[O-])c4)c(Oc4cnc5[nH]ccc5c4)c3)CC2)=C(c2ccc(Cl)cc2)C1 + Cc1nc(NC(=O)N2CCCC2C(N)=O)sc1-c1ccnc(C(C)(C)C(F)(F)F)c1"
target_or_system = "997726-040-R-J2-PDC tumor spheroids, viability"
metric = "viability, T/C"
units_of_measure = "%"
measured_result = 84.2

[[record]]
compound = "C[C@@H](NC(=O)c1ncnc(N)c1Cl)c1ncc(C(=O)Nc2cc(C(F)(F)F)c(Cl)cn2)s1 + CC(Nc1ncnc2nc[nH]c12)c1cc2cccc(Cl)c2c(=O)n1-c1ccccc1"
target_or_system = "997726-040-R-J2-PDC tumor spheroids, viability"
metric = "viability, T/C"
units_of_measure = "%"
measured_result = 123

[[record]]
compound = "CCCS(=O)(=O)Nc1ccc(F)c(C(=O)c2c[nH]c3ncc(-c4ccc(Cl)cc4)cc23)c1F + CC(Nc1ccc2c(c1)OCCn1cc(N3C(=O)OCC3C(F)F)nc1-2)C(N)=O"
target_or_system = "997726-040-R-J2-PDC tumor spheroids, viability"
metric = "viability, T/C"
units_of_measure = "%"
measured_result = 65.1


----------
Test system: 997726-040-R-J2-PDC tumor spheroids, viability
Assay: Anticancer human tumor 997726-040-R-J2-PDC cell line growth inhibition [PI3K];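 further: spheroids exposed to compounds for seven days before readout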
Conditions: curve of first compound; second compound 0.0316 µM; spheroids with HUVEC and MSC
Description: Combinatorial screen of targeted agents with the PI3K inhibitors inavolisib, alpelisib, duvelisib, and copanlisib in multi-cell type tumor spheroids A high-throughput screen of multi-cell type tumor spheroids was designed to identify active combinations of targeted small molecules and PI3K pathway inhibitors. […] Compounds. […] If the clinical Cmax for an agent had not been determined, the highest concentration tested was 10 microM. […]
pIC50: −log10 of the molar value.
metric: pIC50

[[record]]
molecule = "C[C@@H](NC(=O)c1ncnc(N)c1Cl)c1ncc(C(=O)Nc2cc(C(F)(F)F)c(Cl)cn2)s1 + CC(Nc1ncnc2nc[nH]c12)c1cc2cccc(Cl)c2c(=O)n1-c1ccccc1"
measured_result = "< 5.00"

[[record]]
molecule = "CCN1CCN(Cc2ccc(Nc3ncc(F)c(-c4cc(F)c5nc(C)n(C(C)C)c5c4)n3)nc2)CC1 + CC(Nc1ccc2c(c1)OCCn1cc(N3C(=O)OCC3C(F)F)nc1-2)C(N)=O"
measured_result = 7.98

[[record]]
molecule = "C=CC(=O)N1CCN(c2nc(=O)n(-c3c(C)ccnc3C(C)C)c3nc(-c4c(O)cccc4F)c(F)cc23)C(C)C1 (stereo not given) + CC(Nc1ncnc2nc[nH]c12)c1cc2cccc(Cl)c2c(=O)n1-c1ccccc1"
measured_result = "< 5.00"

[[record]]
molecule = "CC(Cn1ccc(-c2ccc(C#N)c(Cl)c2)n1)NC(=O)c1cc(C(C)O)[nH]n1 (stereo not given) + COc1c(OCCCN2CCOCC2)ccc2c3n(c(=NC(=O)c4cnc(N)nc4)nc12)CCN3"
measured_result = "> 7.50"

[[record]]
molecule = "CC1(C)CCC(CN2CCN(c3ccc(C(=O)NS(=O)(=O)c4ccc(NCC5CCOCC5)c([N+](=O)[O-])c4)c(Oc4cnc5[nH]ccc5c4)c3)CC2)=C(c2ccc(Cl)cc2)C1 + CC(Nc1ncnc2nc[nH]c12)c1cc2cccc(Cl)c2c(=O)n1-c1ccccc1"
measured_result = "< 5.00"

[[record]]
molecule = "CNC(=O)c1ccc(N2C(=S)N(c3ccc(C#N)c(C(F)(F)F)c3)C(=O)C2(C)C)cc1F + COc1c(OCCCN2CCOCC2)ccc2c3n(c(=NC(=O)c4cnc(N)nc4)nc12)CCN3"
measured_result = "> 7.50"

[[record]]
molecule = "Cn1ncc(Cl)c1-c1cc(C(=O)NC(CN)Cc2cccc(F)c2)sc1Cl (stereo not given) + Cc1nc(NC(=O)N2CCCC2C(N)=O)sc1-c1ccnc(C(C)(C)C(F)(F)F)c1"
measured_result = 7.01

[[record]]
molecule = "Cn1ncnc1[C@H]1c2n[nH]c(=O)c3cc(F)cc(c23)N[C@@H]1c1ccc(F)cc1 + CC(Nc1ncnc2nc[nH]c12)c1cc2cccc(Cl)c2c(=O)n1-c1ccccc1"
measured_result = "< 7.00"

[[record]]
molecule = "CC1(C)CCC(CN2CCN(c3ccc(C(=O)NS(=O)(=O)c4ccc(NCC5CCOCC5)c([N+](=O)[O-])c4)c(Oc4cnc5[nH]ccc5c4)c3)CC2)=C(c2ccc(Cl)cc2)C1 + CC(Nc1ccc2c(c1)OCCn1cc(N3C(=O)OCC3C(F)F)nc1-2)C(N)=O"
measured_result = 5.23

[[record]]
molecule = "C#Cc1c(F)ccc2cc(O)cc(-c3ncc4c(N5CC6CCC(C5)N6)nc(OCC56CCCN5CC(F)C6)nc4c3F)c12 (stereo not given) + COc1c(OCCCN2CCOCC2)ccc2c3n(c(=NC(=O)c4cnc(N)nc4)nc12)CCN3"
measured_result = "> 7.50"


----------
system: 997726-040-R-J2-PDC tumor spheroids, viability; assay: Anticancer human tumor 997726-040-R-J2-PDC cell line growth inhibition [PI3K]; details: second compound 0.00316 µM; first compound 1 µM; stronger effect = lower value; spheroids with HUVEC and MSC;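 further: spheroids exposed to compounds for seven days before readout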
Mark MET only when viability, T/C stays strictly below 50%. Values equal to the cut-off are NOT MET.

[[record]]
compound = "Cn1nccc1Nc1nccc(-c2ccn(C(CO)c3ccc(Cl)c(F)c3)c(=O)c2)n1 (stereo not given) + COc1c(OCCCN2CCOCC2)ccc2c3n(c(=NC(=O)c4cnc(N)nc4)nc12)CCN3"
target_or_system = "997726-040-R-J2-PDC tumor spheroids, viability"
label = "NOT MET"

[[record]]
compound = "Cn1ncc(Cl)c1-c1cc(C(=O)NC(CN)Cc2cccc(F)c2)sc1Cl (stereo not given) + CC(Nc1ccc2c(c1)OCCn1cc(N3C(=O)OCC3C(F)F)nc1-2)C(N)=O"
target_or_system = "997726-040-R-J2-PDC tumor spheroids, viability"
label = "MET"

[[record]]
compound = "CC(C)NCC(C(=O)N1CCN(c2ncnc3c2C(C)CC3O)CC1)c1ccc(Cl)cc1 (stereo not given) + CC(Nc1ccc2c(c1)OCCn1cc(N3C(=O)OCC3C(F)F)nc1-2)C(N)=O"
target_or_system = "997726-040-R-J2-PDC tumor spheroids, viability"
label = "MET"

[[record]]
compound = "CCN1CCN(Cc2ccc(Nc3ncc(F)c(-c4cc(F)c5nc(C)n(C(C)C)c5c4)n3)nc2)CC1 + CC(Nc1ccc2c(c1)OCCn1cc(N3C(=O)OCC3C(F)F)nc1-2)C(N)=O"
target_or_system = "997726-040-R-J2-PDC tumor spheroids, viability"
label = "NOT MET"

[[record]]
compound = "CC1(C)CCC(CN2CCN(c3ccc(C(=O)NS(=O)(=O)c4ccc(NCC5CCOCC5)c([N+](=O)[O-])c4)c(Oc4cnc5[nH]ccc5c4)c3)CC2)=C(c2ccc(Cl)cc2)C1 + CC(Nc1ccc2c(c1)OCCn1cc(N3C(=O)OCC3C(F)F)nc1-2)C(N)=O"
target_or_system = "997726-040-R-J2-PDC tumor spheroids, viability"
label = "NOT MET"


----------
tested on: 997726-040-R-J2-PDC tumor spheroids, viability; assay: Anticancer human tumor 997726-040-R-J2-PDC cell line growth inhibition [PI3K]; settings: second compound 1 µM; first compound 3.16 µM; spheroids with HUVEC and MSC; active = viability on the fitted dose curve at most 10% of control; inactive = the rest;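 further: spheroids exposed to compounds for seven days before readout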
Classes used: YES (active), NO (inactive)

[[record]]
molecule = "C#Cc1c(F)ccc2cc(O)cc(-c3ncc4c(N5CC6CCC(C5)N6)nc(OCC56CCCN5CC(F)C6)nc4c3F)c12 (stereo unspecified) + Cc1nc(NC(=O)N2CCCC2C(N)=O)sc1-c1ccnc(C(C)(C)C(F)(F)F)c1"
label = "NO"

[[record]]
molecule = "C[C@@H](NC(=O)c1ncnc(N)c1Cl)c1ncc(C(=O)Nc2cc(C(F)(F)F)c(Cl)cn2)s1 + CC(Nc1ncnc2nc[nH]c12)c1cc2cccc(Cl)c2c(=O)n1-c1ccccc1"
label = "NO"

[[record]]
molecule = "CC1(C)CCC(CN2CCN(c3ccc(C(=O)NS(=O)(=O)c4ccc(NCC5CCOCC5)c([N+](=O)[O-])c4)c(Oc4cnc5[nH]ccc5c4)c3)CC2)=C(c2ccc(Cl)cc2)C1 + CC(Nc1ncnc2nc[nH]c12)c1cc2cccc(Cl)c2c(=O)n1-c1ccccc1"
label = "NO"

[[record]]
molecule = "CC(Cn1ccc(-c2ccc(C#N)c(Cl)c2)n1)NC(=O)c1cc(C(C)O)[nH]n1 (stereo unspecified) + CC(Nc1ccc2c(c1)OCCn1cc(N3C(=O)OCC3C(F)F)nc1-2)C(N)=O"
label = "NO"

[[record]]
molecule = "CC(C)NCC(C(=O)N1CCN(c2ncnc3c2C(C)CC3O)CC1)c1ccc(Cl)cc1 (stereo unspecified) + Cc1nc(NC(=O)N2CCCC2C(N)=O)sc1-c1ccnc(C(C)(C)C(F)(F)F)c1"
label = "NO"

[[record]]
molecule = "CNC(=O)c1ccc(N2C(=S)N(c3ccc(C#N)c(C(F)(F)F)c3)C(=O)C2(C)C)cc1F + COc1c(OCCCN2CCOCC2)ccc2c3n(c(=NC(=O)c4cnc(N)nc4)nc12)CCN3"
label = "YES"

[[record]]
molecule = "Cn1ncc(Cl)c1-c1cc(C(=O)NC(CN)Cc2cccc(F)c2)sc1Cl (stereo unspecified) + CC(Nc1ccc2c(c1)OCCn1cc(N3C(=O)OCC3C(F)F)nc1-2)C(N)=O"
label = "YES"

[[record]]
molecule = "C=CC(=O)N1CCN(c2nc(=O)n(-c3c(C)ccnc3C(C)C)c3nc(-c4c(O)cccc4F)c(F)cc23)C(C)C1 (stereo unspecified) + COc1c(OCCCN2CCOCC2)ccc2c3n(c(=NC(=O)c4cnc(N)nc4)nc12)CCN3"
label = "YES"

[[record]]
molecule = "CCCS(=O)(=O)Nc1ccc(F)c(C(=O)c2c[nH]c3ncc(-c4ccc(Cl)cc4)cc23)c1F + COc1c(OCCCN2CCOCC2)ccc2c3n(c(=NC(=O)c4cnc(N)nc4)nc12)CCN3"
label = "YES"

[[record]]
molecule = "Cn1ncc(Cl)c1-c1cc(C(=O)NC(CN)Cc2cccc(F)c2)sc1Cl (stereo unspecified) + Cc1nc(NC(=O)N2CCCC2C(N)=O)sc1-c1ccnc(C(C)(C)C(F)(F)F)c1"
label = "YES"

[[record]]
molecule = "C=CC(=O)N1CCN(c2nc(=O)n(-c3c(C)ccnc3C(C)C)c3nc(-c4c(O)cccc4F)c(F)cc23)C(C)C1 (stereo unspecified) + Cc1nc(NC(=O)N2CCCC2C(N)=O)sc1-c1ccnc(C(C)(C)C(F)(F)F)c1"
label = "NO"

